target: MAPK12 (human); test: KINOMEscan competition binding; conditions: compound 10.0 µM
Assign labels as follows, please: rule met for kinase still bound, per cent of control below 90%; rule not met for kinase still bound, per cent of control equal to or exceeding 90%.

Hello, I'm reviewing records and need to know if kinase still bound, per cent of control of CNC(=O)c1ccc(Nc2cc(Nc3ccccc3S(=O)(=O)C(C)C)c3cc[nH]c3n2)nc1 is below 90%. Could you check?
rule not met

Decide: kinase still bound, per cent of control of COCC(=O)NC/C=C/c1ccc2ncnc(Nc3ccc(Oc4ccc(C)nc4)c(C)c3)c2c1 strictly below 90%?
rule not met

Lab log: compare recorded kinase still bound, per cent of control with 90%; is it strictly lower for CN(C)C/C=C/C(=O)Nc1ccc(C(=O)Nc2cccc(Nc3nccc(-c4cccnc4)n3)c2)cc1 ?
rule met

Consider the compound CCN(CC)CCCCNc1ncc2c(n1)N(C)C(=O)N(c1c(Cl)c(OC)cc(OC)c1Cl)C2 . Is its kinase still bound, per cent of control strictly less than 90%?
rule not met

Record COc1cc(C(=O)N2CCC(N3CCN(C)CC3)CC2)ccc1Nc1ncc2c(n1)N(C)c1ccccc1C(=O)N2C : is its kinase still bound, per cent of control strictly below 90%?
rule met

Quick check: kinase still bound, per cent of control of C=CC(=O)Nc1cc(-n2c(=O)ccc3cnc4ccc(-c5cn[nH]c5)cc4c32)ccc1C under 90%?
rule not met

Given the entry CS(=O)(=O)N1CCN(Cc2cc3nc(-c4cccc5[nH]ncc45)nc(N4CCOCC4)c3s2)CC1 , would its reported kinase still bound, per cent of control be below 90%?
rule not met

Determine if COc1cc(N2CCN(C)CC2)ccc1Nc1ncc2c(n1)N(C)c1ccccc1C(=O)N2C shows kinase still bound, per cent of control strictly lower than 90%.
rule not met

* * *

biological target: MAP4K1 (human); assay: KINOMEscan competition binding; settings: compound 10.0 µM
MEASURED ENDPOINT: kinase still bound, per cent of control (%)
Write the number in % without appending the unit.

Solved cases below.
In [3]: df
Out[3]:
                            chemical_string  output_unit  observed_result
0  C=CC(=O)Nc1ccc(CN(C(=O)Nc2c(Cl)c(OC)cc(OC)c2Cl)c2cc(Nc3ccc(N4CCN(C)CC4)cc3)ncn2)cc1            %               16
1  CCN(CC)CCCCNc1ncc2cc(-c3cc(OC)cc(OC)c3)c(NC(=O)NC(C)(C)C)nc2n1            %              100

Returns the measured kinase still bound, per cent of control for the input compound. Input: O=C1NC(=O)/C(=C/c2ccc3nccc(-c4ccncc4)c3c2)S1
26

Recorded kinase still bound, per cent of control of O=c1cc(N2CCOCC2)oc2c(-c3cccc4c3sc3ccccc34)cccc12 , please.
90

Which kinase still bound, per cent of control value is on record for COc1ccc(N(C(=O)Oc2c(C)cccc2C)c2ccnc(Nc3ccc(N4CCN(C)CC4)cc3)n2)c(OC)c1 ?
0.25

Please report the recorded kinase still bound, per cent of control for COc1cc2ncnc(-n3nc(-c4ccccn4)nc3N)c2cc1OC .
56

Record request: kinase still bound, per cent of control value, item COc1cc(C(=O)N2CCC(N3CCN(C)CC3)CC2)ccc1Nc1ncc2c(n1)N(C)c1ccccc1C(=O)N2C
100

What value of measured kinase still bound, per cent of control is listed for C=CC(=O)Nc1cc(-n2c(=O)ccc3cnc4ccc(-c5cn[nH]c5)cc4c32)ccc1C ?
90

* * *

molecular target: DAPK2 (human); test: KINOMEscan competition binding; conditions: compound 10.0 µM
Measured kinase still bound, per cent of control values are reported for all entries that follow.
I only need the number, in %, no unit after it.

In [3]: df
Out[3]:
                            chemical_string  output_unit  observed_result
0  N#CCNC(=O)c1ccc(-c2ccnc(Nc3ccc(N4CCOCC4)cc3)n2)cc1            %               41
1  CNC(=O)c1cc(Oc2ccc(NC(=O)Nc3ccc(Cl)c(C(F)(F)F)c3)cc2)ccn1            %               87
2  C[C@@H](Oc1cc(-c2cnn(C3CCNCC3)c2)cnc1N)c1c(Cl)ccc(F)c1Cl            %               97

# evaluate next
Which kinase still bound, per cent of control is listed for COc1cc(C(=O)N2CCC(N3CCN(C)CC3)CC2)ccc1Nc1ncc2c(n1)N(C)c1ccccc1C(=O)N2C ?
67

* * *

molecular target: CDK19 (human) (UniProt Q9BWU1); assay: KINOMEscan competition binding; details: compound 10.0 µM
Sequence (Q9BWU1 whole entry, looked up): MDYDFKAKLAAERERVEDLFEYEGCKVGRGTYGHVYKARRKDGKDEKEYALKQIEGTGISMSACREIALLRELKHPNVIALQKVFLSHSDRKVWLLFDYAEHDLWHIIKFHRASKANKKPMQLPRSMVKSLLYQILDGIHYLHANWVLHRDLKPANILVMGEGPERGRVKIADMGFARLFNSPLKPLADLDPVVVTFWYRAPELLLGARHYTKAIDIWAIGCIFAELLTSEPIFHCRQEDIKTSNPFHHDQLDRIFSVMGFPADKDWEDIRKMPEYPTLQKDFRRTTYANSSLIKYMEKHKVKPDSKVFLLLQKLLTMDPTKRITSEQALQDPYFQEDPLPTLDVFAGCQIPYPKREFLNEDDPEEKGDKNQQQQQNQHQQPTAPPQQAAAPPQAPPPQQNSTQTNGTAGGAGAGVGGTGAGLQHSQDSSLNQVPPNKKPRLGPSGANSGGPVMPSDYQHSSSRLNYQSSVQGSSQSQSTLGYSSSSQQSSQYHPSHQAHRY
MEASURED ENDPOINT: kinase still bound, per cent of control (%)
Give the value in % but do not write % after it.

Examples with answers:
In [3]: df
Out[3]:
                            chemical_string                        measured_endpoint  observed_result
0  C[C@@H](Oc1cc(-c2cnn(C3CCNCC3)c2)cnc1N)c1c(Cl)ccc(F)c1Cl  kinase still bound, per cent of control              100
1  O=c1cc(N2CCOCC2)oc2c(-c3cccc4c3sc3ccccc34)cccc12  kinase still bound, per cent of control              100
2  COCC(=O)NC/C=C/c1ccc2ncnc(Nc3ccc(Oc4ccc(C)nc4)c(C)c3)c2c1  kinase still bound, per cent of control              0.5

Param readout= kinase still bound, per cent of control; system= CDK19 (human) (UniProt Q9BWU1); entry= C=CC(=O)Nc1ccc(CN(C(=O)Nc2c(Cl)c(OC)cc(OC)c2Cl)c2cc(Nc3ccc(N4CCN(C)CC4)cc3)ncn2)cc1 ; returns value.
100

# get_value(readout= kinase still bound, per cent of control, system= CDK19 (human) (UniProt Q9BWU1)) for COc1cc(C(=O)N2CCC(N3CCN(C)CC3)CC2)ccc1Nc1ncc2c(n1)N(C)c1ccccc1C(=O)N2C
100

* * *

target: PTK6 (human); test: KINOMEscan competition binding; conditions: compound 10.0 µM
MEASURED ENDPOINT: kinase still bound, per cent of control (%)
Please respond with the number in % and leave the unit unwritten.

// worked examples, kinase still bound, per cent of control included
                            chemical_string                        measured_endpoint  observed_result
0  COc1cc(N2CCN(C)CC2)ccc1Nc1ncc2c(n1)N(C)c1ccccc1C(=O)N2C  kinase still bound, per cent of control              7.6
1  CNC(=O)c1ccc(Nc2cc(Nc3ccccc3S(=O)(=O)C(C)C)c3cc[nH]c3n2)nc1  kinase still bound, per cent of control               25

Note: attention shifts to another entry.
May I ask what kinase still bound, per cent of control has been recorded for CCN(CC)CCCCNc1ncc2c(n1)N(C)C(=O)N(c1c(Cl)c(OC)cc(OC)c1Cl)C2 ?
100

* * *

molecular target: PAK3 (human) (UniProt O75914); assay: KINOMEscan competition binding; details: compound 10.0 µM
Sequence (O75914 whole entry, looked up): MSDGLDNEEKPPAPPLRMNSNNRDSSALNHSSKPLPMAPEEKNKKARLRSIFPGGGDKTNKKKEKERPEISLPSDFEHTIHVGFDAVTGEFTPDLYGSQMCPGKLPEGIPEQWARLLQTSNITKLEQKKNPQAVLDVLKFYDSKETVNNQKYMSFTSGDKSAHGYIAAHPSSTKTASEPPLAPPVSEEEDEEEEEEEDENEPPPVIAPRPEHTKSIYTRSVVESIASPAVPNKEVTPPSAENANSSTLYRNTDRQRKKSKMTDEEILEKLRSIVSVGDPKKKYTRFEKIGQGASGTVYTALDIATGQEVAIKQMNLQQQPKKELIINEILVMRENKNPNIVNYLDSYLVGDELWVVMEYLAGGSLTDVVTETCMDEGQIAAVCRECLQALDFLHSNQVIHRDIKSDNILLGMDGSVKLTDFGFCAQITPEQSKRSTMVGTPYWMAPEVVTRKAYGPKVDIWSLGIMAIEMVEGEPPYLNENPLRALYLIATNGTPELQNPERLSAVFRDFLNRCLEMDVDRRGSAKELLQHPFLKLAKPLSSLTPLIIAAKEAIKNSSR
# kinase still bound, per cent of control values compiled below
The answer is to be given in %; state only the numeric part.

These recorded examples may help you get a feel for the data.
                            chemical_string  observed_result
0  C[C@@H](Oc1cc(-c2cnn(C3CCNCC3)c2)cnc1N)c1c(Cl)ccc(F)c1Cl              5.8
1  Cc1n[nH]c2ccc(-c3cncc(OC[C@@H](N)Cc4c[nH]c5ccccc45)c3)cc12              100
2  O=c1cc(N2CCOCC2)oc2c(-c3cccc4c3sc3ccccc34)cccc12              100

Which kinase still bound, per cent of control is reported for this compound? COc1cc2ncn(-c3cc(OCc4ccccc4C(F)(F)F)c(C(N)=O)s3)c2cc1OC
77

* * *

test system: FLT3 (human), P36888 [R834Q]; test: KINOMEscan competition binding; conditions: compound 10.0 µM
MEASURED ENDPOINT: kinase still bound, per cent of control (%)
I only need the number, in %, no unit after it.

                            chemical_string  observed_result
0  N#C/C(=C1/Nc2ccccc2S1)c1ccnc(NCCc2cccnc2)n1               68
1  O=C(NC1CC1)c1cccc(-c2ccc3c(NC(=O)C4CC4)n[nH]c3c2)c1               67
2  CCN1CCN(Cc2ccc(Nc3ncc4c(n3)N(C)c3ccccc3C(=O)N4C)cc2C(F)(F)F)CC1               69

Reported kinase still bound, per cent of control, compound CCOc1cc2ncc(C#N)c(Nc3ccc(OCc4ccccn4)c(Cl)c3)c2cc1NC(=O)/C=C/CN(C)C : ____
100

Data request, read-out kinase still bound, per cent of control, for COc1cc(C(=O)N2CCC(N3CCN(C)CC3)CC2)ccc1Nc1ncc2c(n1)N(C)c1ccccc1C(=O)N2C
100
